Tested on: PC-3
Test: Apoptosis assay (Cell Death Detection ELISA Plus), PC-3
Assay type: cell-based, human
Details: PC-3, 4 h incubation, enrichment of mono- and oligonucleosomes vs negative control
Experimental: The induction of apoptosis by tested compounds was determined with Cell Death Detection ELISA Plus from Roche Diagnostics GmbH (Mannheim, Germany). Cell Death Detection ELISA Plus is an enzyme immunoassay for determining cytoplasmic histone-associated DNA fragments (mono- and […]) after induced cell death. […] After 10–20 min, 100 µL of ABTS stop solution was pipetted to each well, and the absorbance was read at 405 nm (test wavelength) and 490 nm (reference wavelength). […]
outcomeMeasure: Apoptotic index (AI), PC-3

{"compound": "C=C(C)C1CCC2(C(=O)O)CCC3(C)C(CCC4C5(C)CCC(OC(C)=O)C(C)(C)C5CCC43C)C12 (stereo not shown) [4b, 3-O-Acetylbetulinic acid]", "outcomeMeasure": "Apoptotic index (AI), PC-3", "result": "7.09 (0.01)"}
{"compound": "CC(=O)O[C@H]1CC[C@]2(C)[C@H]3CC=C4[C@@H]5CC(C)(C)CC[C@]5(C(=O)O)CC[C@@]4(C)[C@]3(C)CC[C@H]2C1(C)C [1b, 3-O-Acetyloleanolic acid]", "outcomeMeasure": "Apoptotic index (AI), PC-3", "result": "6.90 (0.04)"}
{"compound": "C=C(C)[C@@H]1CC[C@]2(CO)CC[C@]3(C)[C@H](CC[C@@H]4[C@@]5(C)CC[C@H](O)C(C)(C)[C@@H]5CC[C@]43C)[C@@H]12 [5a, betulin]", "outcomeMeasure": "Apoptotic index (AI), PC-3", "result": "5.82 (0.03)"}
{"compound": "CC1(C)CC[C@]23CC[C@]4(C)[C@H](CC[C@@H]5[C@@]6(C)CC[C@H](O)C(C)(C)[C@@H]6CC[C@]54C)[C@H]2[C@H]1OC3 [3a, allobetulin]", "outcomeMeasure": "Apoptotic index (AI), PC-3", "result": "5.27 (0.01)"}

###

Listed here: items and their measured log10 IC50.
Tested on: HeLa (human cervical epithelioid carcinoma)
Experiment: MTT assay, HeLa
Type: cell-based
Conditions: Homo sapiens; MTT assay, HeLa; read-out: IC50 (±SD), HeLa
From the text: All the cell lines and mediums were obtained from the American Type Culture Collection (ATCC) supplied by LGC-Standards (Lomianki, Poland). […]
outcomeMeasure: log10 IC50 (log10 of the value in µM)

{"compound": "CC1(C)CC[C@]2(CO)CC[C@]3(C)C(=CC[C@@H]4[C@@]5(C)CC[C@H](O)C(C)(C)[C@@H]5CC[C@]43C)[C@@H]2C1", "number": 1.73}
{"compound": "C=C(C)C1CCC2(C(=O)O)CCC3(C)C(CCC4C5(C)CCC(OC(C)=O)C(C)(C)C5CCC43C)C12 (stereo not shown)", "number": 0.21}
{"compound": "CC(=O)OCC12CCC(C)(C)CC1C1=CCC3C4(C)CCC(OC(C)=O)C(C)(C)C4CCC3(C)C1(C)CC2 (stereo not shown)", "number": 1.85}
{"compound": "CC1(C)CC[C@]23CC[C@]4(C)[C@H](CC[C@@H]5[C@@]6(C)CC[C@H](O)C(C)(C)[C@@H]6CC[C@]54C)[C@H]2[C@H]1OC3", "number": 1.69}
{"compound": "C=C(C)[C@@H]1CC[C@]2(C(=O)O)CC[C@]3(C)[C@H](CC[C@@H]4[C@@]5(C)CC[C@H](O)C(C)(C)[C@@H]5CC[C@]43C)[C@@H]12", "number": 1.44}
{"compound": "CC(=O)O[C@H]1CC[C@]2(C)[C@H]3CC=C4[C@@H]5CC(C)(C)CC[C@]5(C(=O)O)CC[C@@]4(C)[C@]3(C)CC[C@H]2C1(C)C", "number": -0.62}
{"compound": "C=C(C)[C@@H]1CC[C@]2(CO)CC[C@]3(C)[C@H](CC[C@@H]4[C@@]5(C)CC[C@H](O)C(C)(C)[C@@H]5CC[C@]43C)[C@@H]12", "number": 1.26}
